The entries below are paired with their reported TGI.
Test system: SN12C renal
Assay: NCI tumour cell line growth inhibition, 48 h
Where a SMILES comes first, the peptide text is derived from it. The star is where a group is joined. Cbz = O=C(OCc1ccccc1)*; NHNH2 = NN*
measured.quantity: TGI

• NC1CNC(=O)c2c(Cl)sc(Cl)c21 (stereo not drawn) = > 100 µM
• COCc1nc2c(OC)cc(-c3nc4ccc(N5CCN(C)CC5)cc4[nH]3)c(OC)c2[nH]1 = > 100 µM
• CC/C(=C(/c1ccc(O)cc1)c1ccc(OCCNC)cc1)c1ccccc1 = 5.78 µM
• NC(CCC(=O)NC(CSSCCCCS(=O)O)C(=O)NCC(=O)O)C(=O)O (stereo not drawn) = > 100 µM
• COC(=O)CC(NC(=O)OCc1ccccc1)C(=O)NC(CC(=O)OC)C(=O)NC(CC(=O)OC)C(=O)NC(CC(=O)OC)C(=O)NC(CC(=O)OC)C(=O)NC(CC(=O)OC)C(=O)NN (stereo not drawn) (Cbz-D(OMe)D(OMe)D(OMe)D(OMe)D(OMe)D(OMe)-NHNH2; configuration not given here) = > 100 µM
• O=c1[nH]nc(-c2ccccc2)c2[nH]c(-c3ccccc3)cc12 = > 100 µM
• CN1CCN(C(=O)OCc2nc3c(N4CCOCC4)nc(Cl)nc3n2C)CC1 = 3.06 µM
• CCCCCCCCCCNC1CC(OC2CC(O)(C(O)CO)Cc3c(O)c4c(c(O)c32)C(=O)c2c(OC)cccc2C4=O)OC(C)C1O (stereo not drawn) = 3.4 µM

# credit: PubChem BioAssay (NCI)
